All values here come from patent US20250270319A1.

pKd listing for selected binders.
Biological target: T1, recombinant human CD33 protein (Sino Biologicals) (human, UniProt P20138 18-259)
T1 construct: Bought protein; also called recombinant CD33
T1 sequence (P20138 18-259 limits assumed): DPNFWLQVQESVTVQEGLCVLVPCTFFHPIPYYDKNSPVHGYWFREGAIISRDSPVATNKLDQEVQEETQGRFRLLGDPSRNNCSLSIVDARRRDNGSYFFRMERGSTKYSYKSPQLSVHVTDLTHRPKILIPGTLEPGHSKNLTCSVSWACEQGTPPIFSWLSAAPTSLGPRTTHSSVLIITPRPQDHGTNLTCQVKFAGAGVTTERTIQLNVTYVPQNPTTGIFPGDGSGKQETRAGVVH
Assay: BLI (ForteBio), antibody on anti-human Fc sensor, CD33 10 nM
pKd here: minus log base 10 of the concentration, concentration in moles per litre.

# binder, number
data = [
    ("anti-CD33 antibody 6C7H20 (antibody, V domains shown, VH/VL only) VH: EVQLVESGGGLVQPGGSLRLSCAGSGFTFSNYPMNWVRQAPGKGLEWVAEIRLKSNNYVTNYAASVKGRFTISRDDSKNSVYLQMNSLKTEDTGVYYCTRAGYYVPFAYWGQGTLVTVSS VL: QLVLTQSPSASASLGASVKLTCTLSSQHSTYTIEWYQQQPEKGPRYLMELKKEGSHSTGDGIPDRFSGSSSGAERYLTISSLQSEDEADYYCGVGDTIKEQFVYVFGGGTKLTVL", 9.21),
]

Reported pKd for anti-CD33 antibody 6C7H26 (antibody, V domains shown, VH/VL only) VH: EVQLVESGGGLVQPGGSLRLSCAGSGFTFSNYIMNWVRQAPGKGLEWVAEIRLKSNNYVTNYAASVKGRFTISRDDSKNSVYLQMNSLKTEDTGVYYCTRAGYYVPFAYWGQGTLVTVSS VL: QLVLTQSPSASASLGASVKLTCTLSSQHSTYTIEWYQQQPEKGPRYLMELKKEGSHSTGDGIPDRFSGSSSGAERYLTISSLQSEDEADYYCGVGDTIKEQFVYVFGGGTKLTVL was 9.14
